- system.name: furin, P09958;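 further: purified furin at 1:10 enzyme:substrate in 50 mM HEPES pH 7.5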
- Sequence (P09958 whole entry): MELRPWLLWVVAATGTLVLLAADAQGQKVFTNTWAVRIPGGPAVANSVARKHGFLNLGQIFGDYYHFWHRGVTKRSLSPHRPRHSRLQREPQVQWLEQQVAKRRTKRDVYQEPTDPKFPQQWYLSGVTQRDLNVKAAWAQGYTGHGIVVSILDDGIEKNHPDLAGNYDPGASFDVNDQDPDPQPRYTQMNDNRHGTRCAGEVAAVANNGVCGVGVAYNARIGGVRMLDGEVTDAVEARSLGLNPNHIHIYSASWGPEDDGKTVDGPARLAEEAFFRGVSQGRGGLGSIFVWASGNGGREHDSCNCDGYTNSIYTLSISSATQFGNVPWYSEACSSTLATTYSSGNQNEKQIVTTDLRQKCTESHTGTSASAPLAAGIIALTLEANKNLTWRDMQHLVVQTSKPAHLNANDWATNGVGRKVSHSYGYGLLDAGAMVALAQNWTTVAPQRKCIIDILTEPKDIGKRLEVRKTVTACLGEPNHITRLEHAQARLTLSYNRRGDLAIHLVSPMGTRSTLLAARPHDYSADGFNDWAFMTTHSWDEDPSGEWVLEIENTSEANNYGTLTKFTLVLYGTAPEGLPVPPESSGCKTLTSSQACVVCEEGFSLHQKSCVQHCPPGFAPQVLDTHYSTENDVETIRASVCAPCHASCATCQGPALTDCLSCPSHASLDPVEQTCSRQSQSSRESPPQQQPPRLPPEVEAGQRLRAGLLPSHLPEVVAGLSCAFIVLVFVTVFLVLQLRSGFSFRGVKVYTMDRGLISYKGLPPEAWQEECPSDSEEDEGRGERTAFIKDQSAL
- procedure.text: furin cleavage Z-score vs untreated control; higher = more cleavage, active = 3.5 or more, inactive = 1 or less, 8 variable residues between constant flanks
- condition.set: 15 min
The other results are listed elsewhere or left out. The true hit rate is not given.
In this exercise, the only acceptable responses are 1.0 = active, 0.0 = inactive

Recorded results for 4 sequences are shown here.
CALLSRVRREAGNASASA [FS-1540]; 1.0
CATYGKFLADAGNASASA [HC808]; 0.0
CASGSWLRDIAGNASASA [HC1147]; 0.0
CADLEDRDRSAGNASASA [HC487]; 0.0

Write down the call the test reported for this sequence. Item: CALLFLLLADAGNASASA [HC521] 0.0
